tested on: HCT-15; test: Cytotoxicity against human HCT15 cells measured after 2 days by MTT assay; type: functional, cell-based; details: HCT-15, 48 h
Please go through the items and note down their pIC50.
Hey, just a heads up that pIC50 is the negative log base 10 of the concentration in molar.

// "Cc1ccc2nc(-c3ccccc3OC(F)(F)F)[nH]c(=O)c2c1" : pIC50 value = 5.55

So for "Cc1ccc2c(=O)[nH]c(-c3ccccc3OC(F)(F)F)nc2c1" , the logged pIC50 turned out to be 4.80

For reference, reported pIC50 for "Cc1cccc(-c2nc3cc(C)ccc3c(=O)[nH]2)c1" stands at 4.68

So for "COc1cccc(-c2nc3cc(C)ccc3c(=O)[nH]2)c1" , the logged pIC50 turned out to be 5.31

GET /value?item= "COc1cccc(-c2nc3ccc(N4CCCCC4)cc3c(=O)[nH]2)c1OC" &field=pIC50 returns 4.61

Input "COc1cccc2c1C(=O)c1c(O)c3c(c(O)c1C2=O)C[C@@](O)(C(=O)CO)C[C@@H]3O[C@H]1C[C@H](N)[C@H](O)[C@H](C)O1" . Output pIC50: 5.48

Quick note, pIC50 for "CC[C@@]1(O)C(=O)OCc2c1cc1n(c2=O)Cc2cc3ccccc3nc2-1" landed at 5.22

Notebook: "CCN(CC)c1ccc2nc(-c3ccccc3C(F)(F)F)[nH]c(=O)c2c1" , pIC50 read as 6.55

Please fill in: pIC50 reported for "Cc1ccc2nc(-c3ccccc3C)[nH]c(=O)c2c1" = 4.93

Consider "CCN(CC)c1ccc2nc(-c3cccc4ccccc34)[nH]c(=O)c2c1" . Its measured pIC50 is 5.49

For reference, reported pIC50 for "CCN(CC)c1ccc2nc(-c3ccccc3N(C)C)[nH]c(=O)c2c1" stands at 5.38

// sample "Cc1ccc2c(=O)[nH]c(-c3cccc4ccccc34)nc2c1" , its pIC50 was 4.63

Record summary for COc1cc([C@@H]2c3cc4c(cc3[C@@H](O[C@@H]3O[C@@H]5CO[C@@H](C)O[C@H]5[C@H](O)[C@H]3O)[C@H]3COC(=O)[C@H]23)OCO4)cc(OC)c1O [ETOPOSIDE] : reported pIC50 = 5.26

Form field pIC50, entry "Cc1ccc2c(=O)[nH]c(-c3ccccc3C)nc2c1" : 4.93

# pIC50 of "Cc1ccc2c(=O)[nH]c(-c3ccccc3F)nc2c1" = 4.99

Form: molecule = "COc1cccc(-c2nc3ccc(C)cc3c(=O)[nH]2)c1" ; pIC50 = 4.50

Memo: "CCN(CC)c1ccc2nc(-c3ccccc3OC(F)(F)F)[nH]c(=O)c2c1" , reported pIC50: 5.77

Query "O=c1[nH]c(-c2cccc3ccccc23)nc2ccc(N3CCCCC3)cc12" yields pIC50 of 5.65

pIC50 measured on "CN(C)c1ccc2nc(-c3cccc4ccccc34)[nH]c(=O)c2c1" = 6.34

Reported pIC50 for "Cc1ccc2c(=O)[nH]c(-c3cccc(F)c3)nc2c1" was 4.84

So, "Cc1ccc2c(=O)[nH]c(-c3ccccc3N(C)C)nc2c1" ? Its pIC50 was 4.89
